Assay: Test E pharmacokinetic behavior in dogs
Assay type: in vivo
Details: male, beagle, plasma; Dog; 5 mg/kg IV infusion over 15 minutes
assay-endpoint: half-life

In [3]: df
Out[3]:
                                   compound  measured_value
0  Cc1c(N2CC[C@@H]([C@H](C)N)C2)c(F)cc2c(=O)n(N)c(=O)n(C3CC3)c12 [reference compound]           2.4 h
1  Cc1c(N2CC[C@@H]([C@H](C)N)C2)c(F)cc2c(=O)[nH]c(=O)n(C3CC3)c12 [drawing 387]           6.3 h

###

Assay: Test E pharmacokinetic behavior in rats
Assay type: in vivo
Conditions: male, Wistar, plasma; Rat; 1 mg/kg IV infusion in D5W over 5 minutes
Measured half-life by item
assay-endpoint: half-life (h)

>>> print(df.to_string())
                                   molecule  assay_endpoint  uom  measured_value
0  Cc1c(N2CC[C@@H]([C@H](C)N)C2)c(F)cc2c(=O)n(N)c(=O)n(C3CC3)c12 [reference compound]       half-life    h               2
1  Cc1c(N2CC[C@@H]([C@H](C)N)C2)c(F)cc2c(=O)[nH]c(=O)n(C3CC3)c12 [drawing 387]       half-life    h             1.9
